- system.under.test: T1, ARHGEF11, O15085
- T1 sequence (O15085 42-136, limits assumed, looked up): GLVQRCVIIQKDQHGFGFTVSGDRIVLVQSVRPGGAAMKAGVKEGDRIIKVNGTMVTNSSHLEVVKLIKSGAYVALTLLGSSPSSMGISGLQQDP
- experimental.protocol: holdup assay
- Set-up: key: below the threshold = too weak to quantify, mostly under pKd 3.1 to 4
- settings: plain residues with an end cap or a label only (N-terminal biotin on a linker: ttds)
Known pKd of a selection of binders
assay.readout: pKd

# binder, value.reported
records = [
    ("DPRNTQTSQI [ABRAXAS2, Q15018]", 4.03),
    ("LCALPKVTTV [AGMAT, Q9BSE5]", 4.52),
    ("SEKHFRETEV [HTLV1-TAX1, P03409]", 4.22),
]
